target: XIAP BIR3 (Homo sapiens, UniProt P98170); construct: covering amino acids 241 to 356; XIAP BIR3; experiment: XIAP BIR3 binding assay (DELFIA), displacement of SMAC peptide; details: GST-fusion BIR3 domain (aa 241 to 356) 10 nM, SMAC peptide 10 nM; activity of the (S)-isomers
Sequence (P98170 241-356): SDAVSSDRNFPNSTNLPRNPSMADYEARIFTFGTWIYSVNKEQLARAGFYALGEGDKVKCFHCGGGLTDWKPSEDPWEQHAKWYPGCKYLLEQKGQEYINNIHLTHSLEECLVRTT
endpointName: IC50 (µM)

Recorded results for 4 compounds are shown here.
>>> print(df.to_string())
                                   compound                                measuredon  resultvalue
0  CNC(C)C(=O)Nc1ccc(-c2ccc(F)nc2)c(C#Cc2ccccc2)n1 (centres unmarked) [Example 146]  XIAP BIR3 (Homo sapiens, UniProt P98170)        0.257
1  Cc1ccc(C#Cc2nc(NC(=O)C(C)N)cc3ccccc23)cc1 (centres unmarked) [Example 205]  XIAP BIR3 (Homo sapiens, UniProt P98170)          2.3
2  CNC(C)C(=O)Nc1ccc(-c2cncnc2)c(C#Cc2ccc3oc4ccccc4c3c2)n1 (centres unmarked) [Example 20]  XIAP BIR3 (Homo sapiens, UniProt P98170)         4.28
3  [2H]C([2H])([2H])NC(C)C(=O)Nc1ccc(-c2c(C)noc2C)c(C#Cc2ccccc2)n1 (centres unmarked) [Example 168]  XIAP BIR3 (Homo sapiens, UniProt P98170)        0.151

(A) Cc1cc(C#Cc2ccccc2)nc(NC(=O)C(C)N)c1 (centres unmarked) [Example 200]
(B) CCc1ccccc1-c1ccc(NC(=O)C(C)NC)nc1C#Cc1ccccc1 (centres unmarked) [Example 124]
Prompt: Dear colleague, could you let me know whether A or B has the lower recorded IC50? Thanks. Provide the label of your selected option as the answer.
Completion: A

====

molecular target: XIAP BIR3 (Homo sapiens); construct: covering amino acids 241 to 356; XIAP BIR3; assay: XIAP BIR3 binding assay (DELFIA), displacement of SMAC peptide; conditions: GST-fusion BIR3 domain (aa 241 to 356) 10 nM, SMAC peptide 10 nM; activity of the (S)-isomers
endpointName: IC50 (nM)

Examples from the recorded data:
>>> df
                                   compound  resultunit  resultvalue
0  CNC(C)C(=O)Nc1ccc(-c2cnc(N3CCN(C)CC3)nc2)c(C#Cc2ccccc2)n1 (centres unmarked) [Example 191]          nM          102
1  CNC(C)C(=O)Nc1ccc(-c2c[nH]nc2C(=O)OC)c(C#Cc2ccccc2)n1 (centres unmarked) [Example 193]          nM          141

(1) CC(N)C(=O)Nc1cccc(C#Cc2nccs2)n1 (centres unmarked) [Example 237]
(2) CNC(C)C(=O)Nc1ccc(-c2c(-c3ccncc3)nc3cc(C)ccn23)c(C#Cc2ccc3c(c2)OCC(=O)N3C)n1 (centres unmarked) [Example 94]
(3) CNC(C)C(=O)Nc1ccc(-c2cncnc2C)c(C#Cc2ccc3cncnc3c2)n1 (centres unmarked) [Example 25]
Prompt: Put the entries in order of IC50, starting with the largest number. Put the labels in the requested order and list them out.
Completion: 1, 3, 2

====

target: cIAP1 BIR3 (Homo sapiens); construct: covering amino acids 256 to 363; cIAP1 BIR3; test: cIAP1 BIR3 binding assay (DELFIA), displacement of SMAC peptide; conditions: GST-fusion BIR3 domain (aa 256 to 363) 10 nM, SMAC peptide 10 nM; activity of the (S)-isomers
Sequence (Q13490 256-363): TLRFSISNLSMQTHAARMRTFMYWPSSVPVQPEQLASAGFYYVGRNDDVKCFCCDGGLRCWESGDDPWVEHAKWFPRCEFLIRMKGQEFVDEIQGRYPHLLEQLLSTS
pIC50: −log10 of the molar value.
endpointName: pIC50

Answered cases to consult:
                                   compound  resultvalue
0  CNC(C)C(=O)Nc1ccc(-c2c(C)nc3ccccn23)c(C#Cc2ccc3occc3c2)n1 (stereo not drawn) [Example 52]         9.00
1  CNC(C)C(=O)Nc1ccc(-c2c(C)nc(N3CCOCC3)nc2C)c(C#Cc2ccc3c(ccc(=O)n3C)c2)n1 (stereo not drawn) [Example 35]         9.00
2  Cc1noc(C)c1-c1ccc(NC(=O)C(C)N)nc1C#Cc1ccccc1 (stereo not drawn) [Example 165]         9.00
3  CNC(C)C(=O)Nc1ccc(-c2cncc(C#N)c2)c(C#Cc2ccccc2)n1 (stereo not drawn) [Example 123]         7.60
4  CNC(C)C(=O)Nc1ccc(-c2c(C)nc3ccccn23)c(C#Cc2ccc(C#N)c(Cl)c2)n1 (stereo not drawn) [Example 41]         9.00
5  CNC(C)C(=O)Nc1ccc(-c2c(C)nc(N(C)C)nc2C)c(C#Cc2ccc3c(ccc(=O)n3C)c2)n1 (stereo not drawn) [Example 75]         9.00
6  CNC(C)C(=O)Nc1ccc(-c2c(C)nc3ccccn23)c(C#Cc2ccc3c(c2)oc(=O)n3C)n1 (stereo not drawn) [Example 71]         9.00
7  CNC(C)C(=O)Nc1ccc(-c2c(C)nc3ccccn23)c(C#Cc2ccc3ncccc3c2)n1 (stereo not drawn) [Example 28]         9.00

(I) CNC(C)C(=O)Nc1ccc(-c2c(-c3ccncc3)nc3cc(C)ccn23)c(C#Cc2ccc(OC)c3ncccc23)n1 (stereo not drawn) [Example 96]
(II) CNC(C)C(=O)Nc1ccc(-c2cncc(C)c2)c(C#Cc2ccccc2)n1 (stereo not drawn) [Example 127]
Prompt: Out of I and II , name the one with the higher pIC50. Your choice should be expressed through its label.
Completion: I
(I: 9.00, II: 7.68)
